Values were extracted from patent US11827701B2.

# testedTarget: T1, eukaryotically produced human IL-6 (Homo sapiens, UniProt P05231)
# T1 construct: purchased Humanzyme HZ-1044; host or cells: Human Embryonic kidney cells
# T1 sequence (P05231 30-212): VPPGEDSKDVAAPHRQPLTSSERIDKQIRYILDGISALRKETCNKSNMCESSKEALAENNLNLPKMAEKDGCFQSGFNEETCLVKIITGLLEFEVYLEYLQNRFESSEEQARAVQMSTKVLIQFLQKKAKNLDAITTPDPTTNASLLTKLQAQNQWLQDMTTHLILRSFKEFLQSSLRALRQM
# measurementDescription: Surface plasmon resonance (Biacore), eukaryotically produced human IL-6 coated on CM5 chip
# Format: binding
# assayConditions: euk; periplasmic fractions, 29B11 chain shuffled
propertyMeasured: KA
Lab note: write values as number then unit, every time.

Exam item: Return reported KA; argument: 55E2b: 29B11 chain shuffled Fab, periplasmic fraction (antibody, V domains shown) VH: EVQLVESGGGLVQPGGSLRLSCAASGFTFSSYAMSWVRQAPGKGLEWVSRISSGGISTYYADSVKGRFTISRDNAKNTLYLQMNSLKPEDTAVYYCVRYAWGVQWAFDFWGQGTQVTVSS VL: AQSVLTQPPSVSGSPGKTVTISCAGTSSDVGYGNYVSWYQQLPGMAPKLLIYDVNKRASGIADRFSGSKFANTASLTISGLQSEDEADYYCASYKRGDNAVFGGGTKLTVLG
Marked response: 6.34e+09 M⁻¹

Now turn to the next molecule.
Exam item: Return reported KA; argument: 55C1a: 29B11 chain shuffled Fab, periplasmic fraction (antibody, V domains shown) VH: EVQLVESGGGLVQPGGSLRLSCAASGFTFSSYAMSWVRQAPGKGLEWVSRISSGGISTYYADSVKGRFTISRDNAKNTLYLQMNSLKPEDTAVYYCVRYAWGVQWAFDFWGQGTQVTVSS VL: ALNFMLTQPPSVSGSPGKTVTISCAGTSSDVGYGNYVSWYQQLPGTAPKLLIYNVNKRASGITDRFSGSKSGNTASLTISGLQSEDEADYYCASYRTGDNAAFGGGTKLTVLG
Marked response: 5.55e+09 M⁻¹
